Reported AC50 by item:
subject.of.test: human CYP1A2, CYP1A2 (gene 1544) (UniProt P05177)
Sequence (P05177 whole entry, looked up): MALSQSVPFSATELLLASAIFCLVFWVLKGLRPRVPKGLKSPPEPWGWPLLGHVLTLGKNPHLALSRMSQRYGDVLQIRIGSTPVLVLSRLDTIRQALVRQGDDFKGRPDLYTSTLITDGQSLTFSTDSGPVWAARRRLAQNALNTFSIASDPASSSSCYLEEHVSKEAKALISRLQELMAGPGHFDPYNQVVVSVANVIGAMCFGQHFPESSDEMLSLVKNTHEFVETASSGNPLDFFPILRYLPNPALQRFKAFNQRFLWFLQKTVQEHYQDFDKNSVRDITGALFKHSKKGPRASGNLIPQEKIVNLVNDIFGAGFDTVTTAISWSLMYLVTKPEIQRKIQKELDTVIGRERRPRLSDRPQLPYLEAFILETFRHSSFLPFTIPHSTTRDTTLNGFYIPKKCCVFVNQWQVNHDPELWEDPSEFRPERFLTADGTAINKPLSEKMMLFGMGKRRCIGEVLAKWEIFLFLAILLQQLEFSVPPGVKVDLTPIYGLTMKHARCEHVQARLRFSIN
assay.method.text: NVS_ADME_hCYP1A2: NovaScreen (NVS) CYP450-related Enzyme Activity (ADME) Assay for human CYP1A2 (AID 2283102);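 also: fluorescence from turnover of a fluorogenic substrate by recombinant insect-cell CYP1A2; potency for inhibition since loss of fluorescence marks reduced CYP1A2 activity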
The source made the active and inactive calls. The calls were made as follows: active = hit-call score of the fitted dose curve at least 0.9, where 1 is the maximum; inconclusive = response in the unintended direction; inactive = score below 0.9.

compound=NCc1cccc(C2CCN(C(=O)c3ccc(C#Cc4ccccc4F)o3)CC2)c1 result="6.43 µM (active)"
compound=Clc1cc(Cl)c2c(c1)N=C1CCCCCN1C2 result="2.34 µM (active)"
compound=CN(C)c1ccc(C(=C2C=CC(=[N+](C)C)C=C2)c2ccc(N(C)C)cc2)cc1 result="6.67 µM (active)"

According to the records, this compound CC1(C)NC(=O)N(c2ccc([N+](=O)[O-])c(C(F)(F)F)c2)C1=O displays AC50 of 5.28 µM (active)

According to the records, this compound OC12N=C(c3ccccc3)SC1Cc1cc(Cl)ccc12 (centres undefined) displays AC50 of 0.814 µM (active)

According to the records, this compound CCCCOC(=O)c1ccc(O)cc1 displays AC50 of 2.4 µM (active)

====

Read-out: CD69, CD69 (gene 969)
assay.method.text: BSK_SAg_CD69: BioMAP Diversity Plus: SAg Assay for CD69 Biomarker Activity (AID 2283089)
experimental.context: primary human HUVEC with PBMC; actives raise or lower the signal
Calls of active or inactive are those of the source. The calls were made as follows: active = hit-call score of the fitted dose curve at least 0.9, where 1 is the maximum; inactive = score below 0.9.
# output must be one of Yes (active), No (inactive)

Exercise: # lookup: test call for CCCCCCCCN(C)CCCCCCCC
Solution: No

====

Read-out: urokinase plasminogen activator (uPA), PLAU (gene 5328)
assay.method.text: BSK_KF3CT_uPA: BioMAP Diversity Plus: KF3CT Assay for urokinase plasminogen activator (uPA) Biomarker Activity (AID 2283075)
experimental.context: primary human keratinocytes with fibroblasts; actives raise or lower the signal
Activity calls are given as the source filed them. Rule for the calls: active = hit-call score of the fitted dose curve at least 0.9, where 1 is the maximum; inactive = score below 0.9.
measured.property: AC50

structure=COc1ccc2cc(S(=O)(=O)N[C@H](CC(=O)N[C@H](Cc3ccc(CN4[C@H](C)CCC[C@@H]4C)cc3)C(=O)N(C)C(C)C)c3ccc4c(c3)OCO4)ccc2c1 measured_property=AC50 result=inactive
structure=CC(C)(C)c1csc(-c2cc3cc(OCc4ccccc4CC(=O)O)ccc3o2)n1 measured_property=AC50 result="20.7 µM (active)"
structure=COc1cccc([C@H](O)C2CCN(CCc3ccc(F)cc3)CC2)c1OC measured_property=AC50 result=inactive
structure=CCN(Cc1cccnc1)C(=O)c1cccc(Cl)c1[C@]1(C)C(=O)N(Cc2ccc(OC)cc2OC)c2ccc(Cl)cc21 measured_property=AC50 result=inactive

According to the records, this compound CCCCCCCCCCCO displays AC50 of inactive

According to the records, this compound CCO[Si](CCCNC(N)=O)(OCC)OCC displays AC50 of inactive

According to the records, this compound O=C1c2ccccc2C(=O)N1CCc1noc(-c2ccc(CN3CCCCCC3)s2)n1 displays AC50 of inactive

According to the records, this compound CC(=O)N1CCN(c2ccc(OC[C@H]3CO[C@](Cn4ccnc4)(c4ccc(Cl)cc4Cl)O3)cc2)CC1 displays AC50 of 30.8 µM (active)

According to the records, this compound NC(=O)c1nc(-c2cccc(-c3cc(F)ccc3OCC(F)(F)C(F)(F)F)c2)n[nH]1 displays AC50 of 43.1 µM (active)

According to the records, this compound CC(C)(C)c1cc(/C=C2\SC(N)=NC2=O)cc(C(C)(C)C)c1O displays AC50 of 12.5 µM (active)

According to the records, this compound Cc1occc1C(=O)Nc1ccc(C(=O)N2CCC(F)(F)/C(=C\C(=O)N3CCC(N4CCCCC4)CC3)c3ccccc32)cc1 displays AC50 of inactive

According to the records, this compound CCN(Cc1cccc(S(=O)(=O)O)c1)c1ccc(C(=C2C=CC(=[N+](CC)Cc3cccc(S(=O)(=O)O)c3)C=C2)c2ccccc2S(=O)(=O)[O-])cc1 displays AC50 of inactive

According to the records, this compound CCOC(=O)O[C@H](C)OC(=O)c1ccc2c(c1)cc(C(=O)NC1CCN(C(C)C)CC1)n2Cc1cc(-c2ccc(Cl)s2)on1 displays AC50 of 8.14 µM (active)

According to the records, this compound CCCCOC(=O)c1ccc(O)cc1 displays AC50 of inactive

According to the records, this compound Cc1ccc(C(C)C)cc1 displays AC50 of inactive

According to the records, this compound O=C(O)c1ccccc1-n1cc(C(=O)O)c(=O)c2cc(Nc3c(F)cc(F)cc3Cl)c(Cl)cc21 displays AC50 of inactive

====

assay.method.text: APR_HepG2_p53Act_24hr: Apredica 24-hour HepG2 Assay for p53 Activation (AID 2282913);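 also: p53 protein immunofluorescence averaged per cell in HepG2 with Hoechst nuclei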
experimental.context: high-content imaging, actives raise or lower the signal
Calls of active or inactive are those of the source. How the source made its calls: active means hit-call score of the fitted dose curve at least 0.9, where 1 is the maximum; inactive means score below 0.9.
# output must be one of yes for active, no for inactive

Consider the worked cases shown below.
structure=CCN(Cc1cccnc1)C(=O)c1cccc(Cl)c1[C@]1(C)C(=O)N(Cc2ccc(OC)cc2OC)c2ccc(Cl)cc21 classification=no
structure=CCCCCCCCCC(=O)O classification=no
structure=CN(C)c1ccc(C(=C2C=CC(=[N+](C)C)C=C2)c2ccc(N(C)C)cc2)cc1 classification=yes
structure=CCCCCCCCOc1ccc(C(=O)c2ccccc2)c(O)c1 classification=no

# ---- query compound ----
Exercise: # lookup: test call for O=C(O)c1ccccc1-n1cc(C(=O)O)c(=O)c2cc(Nc3c(F)cc(F)cc3Cl)c(Cl)cc21
Solution: no

====

assay.method.text: ATG_DR4_LXR_CIS: Attagene CIS-FACTORIAL HepG2 Assay for human Liver X Receptor (LXR), DR4 submotif (AID 2282929)
experimental.context: HepG2 Attagene DR4 cis-reporter, mRNA transcription; actives raise or lower the signal
Active and inactive are the calls of the source. Rule for the calls: active = hit-call score of the fitted dose curve at least 0.9, where 1 is the maximum; inactive = score below 0.9.
# output must be one of 1 (active), 0 (inactive)

Consider the worked cases shown below.
molecule=CCN(CC)C(=O)c1cc(S(=O)(=O)Cc2ccccc2)c(N2CCC(c3ccccc3)CC2)cc1N(CC)CCN(C)C classification=0
molecule=CC[C@@H]1C[C@H](N(Cc2cc(C(F)(F)F)cc(C(F)(F)F)c2)C(C)=O)c2cc(C(F)(F)F)ccc2N1C(=O)OC(C)C classification=0
molecule=Oc1ccc2ccccc2c1 classification=1
molecule=O=C(OCCCCCCOC(=O)c1ccccc1)c1ccccc1 classification=0
molecule=COc1cc(C(=O)NC2CCN(C)CC2)ccc1Nc1ncc2c(n1)N(C1CCCC1)CC(F)(F)C(=O)N2C classification=1
molecule=CN1C(=O)CC[C@H]1c1cccnc1 classification=0

Exercise: # lookup: test call for O=C(O)c1ccccc1-n1cc(C(=O)O)c(=O)c2cc(Nc3c(F)cc(F)cc3Cl)c(Cl)cc21
Solution: 0

Exercise: # lookup: test call for CCOC(=O)O[C@H](C)OC(=O)c1ccc2c(c1)cc(C(=O)NC1CCN(C(C)C)CC1)n2Cc1cc(-c2ccc(Cl)s2)on1
Solution: 0

Exercise: # lookup: test call for O=C(O)Cn1c(=O)n(Cc2ccc(Br)cc2F)c(=O)c2ccc(Cl)cc21
Solution: 0

====

assay.method.text: CCTE_Deisenroth_5AR_NBTE_acceptor: CCTE's 5alpha-reductase NanoBRET Target Engagement Assay - Autofluorescence Screen, Deisenroth Lab (AID 2284321);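 also: compound fluorescence in the acceptor channel under 460 nm excitation flags autofluorescence artifacts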
experimental.context: actives raise or lower the signal
The source made the active and inactive calls. Rule for the calls: active = hit-call score of the fitted dose curve at least 0.9, where 1 is the maximum; inactive = score below 0.9.
# output must be one of label 1 for active, label 0 for inactive

Consider the worked cases shown below.
molecule=CO[C@H]1/C=C/O[C@@]2(C)Oc3c(C)c(O)c4c(O)c(c(/C=N/N5CCN(C)CC5)c(O)c4c3C2=O)NC(=O)/C(C)=C\C=C\[C@H](C)[C@H](O)[C@@H](C)[C@@H](O)[C@@H](C)[C@H](OC(C)=O)[C@@H]1C classification="label 0"
molecule=O=c1[nH]sc2ccccc12 classification="label 1"
molecule="CN1C(=O)N(c2ccccc2Br)Cc2cnc(Nc3ccc4c(c3)OCC(CO)O4)nc21 (stereo unspecified)" classification="label 0"
molecule=CN(C[C@@H](CC[N+]12CCC(C3CCCCC3)(CC1)CC2)c1ccc(Cl)c(Cl)c1)C(=O)c1cc(C(F)(F)F)cc(C(F)(F)F)c1 classification="label 1"
molecule=CN1C(=O)CC[C@H]1c1cccnc1 classification="label 0"

Exercise: # lookup: test call for CCCCCCCCCCCO
Solution: label 0

Exercise: # lookup: test call for CCCCCCCCOC(=O)c1cc(O)c(O)c(O)c1
Solution: label 1

Exercise: # lookup: test call for CCN(CC)C(=O)c1cc(S(=O)(=O)Cc2ccccc2)c(N2CCC(c3ccccc3)CC2)cc1N(CC)CCN(C)C
Solution: label 0

Exercise: # lookup: test call for CN(C)c1ccc(C(=C2C=CC(=[N+](C)C)C=C2)c2ccc(N(C)C)cc2)cc1
Solution: label 1

Exercise: # lookup: test call for CCN(Cc1cccc(S(=O)(=O)O)c1)c1ccc(C(=C2C=CC(=[N+](CC)Cc3cccc(S(=O)(=O)O)c3)C=C2)c2ccccc2S(=O)(=O)[O-])cc1
Solution: label 1

Exercise: # lookup: test call for O=c1c(-c2ccc(O)cc2)coc2cc(O)cc(O)c12
Solution: label 0
